Property: pIC50; scope: individual compounds
Molecular target: Melanin-concentrating hormone receptor 1 (Homo sapiens, UniProt Q99705)
Sequence (Q99705 whole entry): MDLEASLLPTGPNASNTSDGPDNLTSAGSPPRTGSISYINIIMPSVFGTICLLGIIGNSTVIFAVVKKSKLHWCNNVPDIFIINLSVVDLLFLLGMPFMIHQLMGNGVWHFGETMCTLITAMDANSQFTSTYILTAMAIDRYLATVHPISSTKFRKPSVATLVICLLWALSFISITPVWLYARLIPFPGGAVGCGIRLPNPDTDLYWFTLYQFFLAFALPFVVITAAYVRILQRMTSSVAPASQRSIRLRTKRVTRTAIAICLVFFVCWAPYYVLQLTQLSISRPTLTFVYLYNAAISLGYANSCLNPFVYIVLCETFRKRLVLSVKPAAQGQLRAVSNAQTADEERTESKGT
Experiment: Antagonist activity at MCHR1 (unknown origin) assessed as IP3 levels by cell-based functional assay
Schema: pIC50 number; meaning minus log10 of the concentration expressed in molar units.

>>> result("CC(=O)Nc1cccc(C2CCN(Cc3ccc(C(=O)c4nc(C)c(C)n4-c4ccc(F)cc4)cc3)CC2)c1")
7.02

Exercise: Give the observed pIC50 of CC(=O)Nc1cccc(C2CCN(Cc3ccc(C(=O)c4nc5ccccc5n4-c4ccc(F)cc4)cc3F)CC2)c1 for Melanin-concentrating hormone receptor 1 (Homo sapiens, UniProt Q99705).
Key: 7.10

Exercise: Give the observed pIC50 of CC(=O)Nc1cccc(C2CCN(Cc3ccc(C(=O)c4nc5ccccc5n4-c4ccc(F)cc4)cn3)CC2)c1 for Melanin-concentrating hormone receptor 1 (Homo sapiens, UniProt Q99705).
Key: 7.18
